target-desc: hERαCDE W393A (Homo sapiens, UniProt P03372 181-552, W393A)
Sequence (P03372 181-552 W393A): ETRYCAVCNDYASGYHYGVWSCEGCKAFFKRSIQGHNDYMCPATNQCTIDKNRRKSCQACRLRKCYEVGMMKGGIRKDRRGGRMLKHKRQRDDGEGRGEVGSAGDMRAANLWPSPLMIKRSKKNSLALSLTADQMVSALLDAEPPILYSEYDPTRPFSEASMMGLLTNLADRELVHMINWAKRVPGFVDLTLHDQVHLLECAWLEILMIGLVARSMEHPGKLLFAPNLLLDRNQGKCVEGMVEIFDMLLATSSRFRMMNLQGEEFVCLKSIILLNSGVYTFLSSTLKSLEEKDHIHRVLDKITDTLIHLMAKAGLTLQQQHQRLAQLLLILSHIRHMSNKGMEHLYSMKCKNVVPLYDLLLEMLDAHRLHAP
method-summary: fluorescence anisotropy; E2, TIF2 coactivator peptide; 20 nM DNA; FA: 10 mM CHES pH 9.5, 50 mM KCl, 50 mM NaCl, 4 mM MgCl2, 50 mM arginine, 50 mM glutamic acid, 5 mM TCEP, 5% glycerol, 10 uM ZnCl2, 10 uM E2; 20 nM DNA, 10 min; temperature not stated
condition-set: protein: recombinant; tags: His-tag (pMCSG7), removed by TEV; chain copies: 2; label: 5' 6-FAM (strands described as 5'-labeled); blunt, 19 bp as printed (text says 18-bp)
observable: pKd
One number for each entry, as −log10 of the molar value.

q: // pKd lookup, key: 6-FAM ERE-DNA (dsDNA) DNA 1: TAGGTCACAGTGACCTGCG DNA 2: CGCAGGTCACTGTGACCTA
a: 7.97
